Where do the numbers come from? From patent US9265253B2.

Tested on: Mycosphaerella graminicola; Anamorph: Septoria tritici
Test: Leaf Blotch of Wheat (SEPTTR) disease control
Format: in vivo
Conditions: Zymoseptoria tritici, 72 h, 3 Day Curative, rate 121.5 g/H; read-out: SEPTTR 3 DC disease control
So I've got a bunch of compounds here, and I need their pest or weed control at 121.5 g/ha values.

As a guide, the following entries are already answered.
input smiles	property name	result
COc1ccnc(C(=O)N[C@H]2CCC[C@H](Cc3ccccc3)[C@@H](OCC(C)C)[C@H](C)OC2=O)c1OC(C)=O	pest or weed control at 121.5 g/ha	80 to 100%
CCCO[C@@H]1[C@@H](Cc2ccc(F)cc2)CCC[C@H](NC(=O)c2nccc(OC)c2OCOC(=O)COCC)C(=O)O[C@H]1C	pest or weed control at 121.5 g/ha	80 to 100%
COc1ccnc(C(=O)N[C@H]2CCC[C@H](CCC(C)C)[C@@H](OC)[C@H](C)OC2=O)c1OC(C)=O	pest or weed control at 121.5 g/ha	0 to 80%
COc1ccnc(C(=O)N[C@H]2CCC[C@H](CC3CCCC3)[C@@H](OCC3CC3)[C@H](C)OC2=O)c1OCOC(C)=O	pest or weed control at 121.5 g/ha	80 to 100%
CCOCC(=O)OCOc1c(OC)ccnc1C(=O)N[C@H]1CCC[C@H](CCF)[C@@H](OCC(C)C)[C@H](C)OC1=O	pest or weed control at 121.5 g/ha	80 to 100%

Give pest or weed control at 121.5 g/ha for each listed item.
1. COc1ccnc(C(=O)N[C@H]2CCC[C@H](CCF)[C@@H](OCC(C)C)[C@H](C)OC2=O)c1OCOC(C)=O
2. CCOCC(=O)OCOc1c(OC)ccnc1C(=O)N[C@H]1CCC[C@H](CCC(C)C)[C@@H](OC)[C@H](C)OC1=O
3. COc1ccnc(C(=O)N[C@H]2CCC[C@H](Cc3ccco3)[C@@H](OCC(C)C)[C@H](C)OC2=O)c1OCOC(C)=O
4. COc1ccnc(C(=O)N[C@H]2CCC[C@H](CCC(C)C)[C@@H](OC)[C@H](C)OC2=O)c1OCOC(C)=O
5. COc1ccnc(C(=O)N[C@H]2CCC[C@H](C)[C@@H](OCc3ccccc3)[C@H](C)OC2=O)c1OC(C)=O
6. COc1ccnc(C(=O)N[C@H]2CCC[C@H](Cc3ccc(F)cc3)[C@@H](OCC3CC3)[C@H](C)OC2=O)c1OC(C)=O
7. COc1ccnc(C(=O)N[C@H]2CCC[C@H](CCC(C)C)[C@@H](OCC3CC3)[C@H](C)OC2=O)c1OC(C)=O

Result:
1: 80 to 100%; 2: 0 to 80%; 3: 0 to 80%; 4: 0 to 80%; 5: 80 to 100%; 6: 80 to 100%; 7: 80 to 100%

Query: Hi! What's the reported pest or weed control at 121.5 g/ha for `COc1ccnc(C(=O)N[C@H]2CCC[C@H](CCC(C)C)[C@@H](Oc3ccccc3)[C@H](C)OC2=O)c1OC(C)=O` on Mycosphaerella graminicola; Anamorph: Septoria tritici?
Result: 80 to 100%

* * *

Test system: Mycosphaerella graminicola; Anamorph: Septoria tritici
Test: Leaf Blotch of Wheat (SEPTTR) disease control
Format: in vivo
Details: Zymoseptoria tritici, 72 h, 3 Day Curative, rate 121.5 g/H; read-out: SEPTTR 3 DC disease control
property name: pest or weed control at 121.5 g/ha

As a guide, the following entries are already answered.
molecule	property name	result
CCOCC(=O)OCOc1c(OC)ccnc1C(=O)N[C@H]1CCC[C@H](Cc2ccc(F)cc2)[C@@H](OC(=O)C2CCCC2)[C@H](C)OC1=O [Compound F170]	pest or weed control at 121.5 g/ha	80 to 100%
COc1ccnc(C(=O)N[C@H]2CCC[C@H](CCSC)[C@@H](OCC(C)C)[C@H](C)OC2=O)c1OCOC(C)=O [Compound F131]	pest or weed control at 121.5 g/ha	80 to 100%
COc1ccnc(C(=O)N[C@H]2CCC[C@H](C)[C@@H](Oc3ccccc3)[C@H](C)OC2=O)c1OCOC(=O)C(C)C [Compound F155]	pest or weed control at 121.5 g/ha	80 to 100%
CC[C@H]1CCC[C@H](NC(=O)c2nccc(OC)c2OC(C)=O)C(=O)O[C@@H](C)[C@@H]1Oc1ccccc1 [Compound F81]	pest or weed control at 121.5 g/ha	80 to 100%

Give pest or weed control at 121.5 g/ha for each listed item.
1. CCOCC(=O)OCOc1c(OC)ccnc1C(=O)N[C@H]1CCC[C@H](Cc2ccc(F)cc2)[C@@H](OC(=O)C(C)C)[C@H](C)OC1=O [Compound F171]
2. COc1ccnc(C(=O)N[C@H]2CCC[C@H](CCC(C)C)[C@@H](OCC(C)C)[C@H](C)OC2=O)c1OCOC(C)=O [Compound F90]
3. CCOCC(=O)OCOc1c(OC)ccnc1C(=O)N[C@H]1CCC[C@H](Cc2ccccc2)[C@@H](OCC(C)C)[C@H](C)OC1=O [Compound F172]
4. COCC[C@H]1CCC[C@H](NC(=O)c2nccc(OC)c2OC(C)=O)C(=O)O[C@@H](C)[C@@H]1Oc1ccccc1 [Compound F78]
5. COc1ccnc(C(=O)N[C@H]2CCC[C@H](CC(F)F)[C@@H](Oc3ccccc3)[C@H](C)OC2=O)c1OC(C)=O [Compound F82]
6. COc1ccnc(C(=O)N[C@H]2CCC[C@H](CCOCC3CC3)[C@@H](OCC3CC3)[C@H](C)OC2=O)c1OC(C)=O [Compound F83]
7. CCOCC(=O)OCOc1c(OC)ccnc1C(=O)N[C@H]1CCC[C@H](CCOC)[C@@H](OCC(C)C)[C@H](C)OC1=O [Compound F187]

Result:
1: 80 to 100%; 2: 80 to 100%; 3: 80 to 100%; 4: 80 to 100%; 5: 80 to 100%; 6: 0 to 80%; 7: 80 to 100%

Give pest or weed control at 121.5 g/ha for each listed item.
1. COc1ccnc(C(=O)N[C@H]2CCC[C@H](C)[C@@H](OCc3ccccc3)[C@H](C)OC2=O)c1OCOC(C)=O [Compound F125]
2. CC[C@H]1CCC[C@H](NC(=O)c2nccc(OC)c2OCOC(C)=O)C(=O)O[C@@H](C)[C@@H]1Oc1ccccc1 [Compound F136]
3. C=C[C@H]1CCC[C@H](NC(=O)c2nccc(OC)c2OCOC(C)=O)C(=O)O[C@@H](C)[C@@H]1Oc1ccccc1 [Compound F146]

Result:
1: 80 to 100%; 2: 80 to 100%; 3: 80 to 100%

* * *

Test system: Mycosphaerella graminicola; Anamorph: Septoria tritici
Test: Leaf Blotch of Wheat (SEPTTR) disease control
Format: in vivo
Conditions: Zymoseptoria tritici, 72 h, 3 Day Curative, rate 121.5 g/H; read-out: SEPTTR 3 DC disease control
property name: pest or weed control at 121.5 g/ha

As a guide, the following entries are already answered.
compound	pest or weed control at 121.5 g/ha
COc1ccnc(C(=O)N[C@H]2CCC[C@H](CCOCC3CC3)[C@@H](OCC3CC3)[C@H](C)OC2=O)c1OCOC(C)=O [Compound F140]	0 to 80%
CCO[C@@H]1[C@@H](Cc2ccccc2)CCC[C@H](NC(=O)c2nccc(OC)c2OC(C)=O)C(=O)O[C@H]1C [Compound F87]	80 to 100%

Then there is this compound:
Query: Record request: pest or weed control at 121.5 g/ha value, item COc1ccnc(C(=O)N[C@H]2CCC[C@H](Cc3ccc(F)cc3F)[C@@H](OCC(C)C)[C@H](C)OC2=O)c1OCOC(C)=O [Compound F145]
Result: 80 to 100%

* * *

So I've got a bunch of compounds here, and I need their pest or weed control at 25 ppm values.
System: Phakopsora pachyrhizi
Assay: Asian Soybean Rust (PHAKPA) disease control
Type: in vivo
Conditions: Phakopsora pachyrhizi, topical, 72 h, 3 Day Curative, read-out: Disease Control PHAKPA 3DC
Method: Technical grades of materials were dissolved in acetone, which were then mixed with nine volumes of water containing 0.011% Tween 20. The fungicide solutions were applied onto soybean seedlings using an automated booth sprayer to run-off. All sprayed plants were allowed to air dry prior to further handling. Soybean plants (variety Williams 82) were grown in soil-less Metro mix, with one plant per pot. Two weeks old seedlings were used for testing. […] Disease severity was assessed on the sprayed leaves.

input smiles	result
COc1ccnc(C(=O)N[C@H]2CCC[C@H](CCC(C)C)[C@@H](OCC3CC3)[C@H](C)OC2=O)c1OCOC(C)=O	80 to 100%

Give pest or weed control at 25 ppm for each listed item.
1. COc1ccnc(C(=O)N[C@H]2CCC[C@H](Cc3ccccc3)[C@@H](OCC(C)C)[C@H](C)OC2=O)c1OCOC(=O)C(C)C
2. COc1ccc(C[C@H]2CCC[C@H](NC(=O)c3nccc(OC)c3OCOC(C)=O)C(=O)O[C@@H](C)[C@@H]2OCC(C)C)cc1

Result:
80 to 100%
0 to 80%
